Where these numbers come from: paper PMC5727211

target: STAT1 SH2 domain (Homo sapiens); assay: FP-based competitive binding assay, STAT1 SH2 domain; conditions: at 80 µM, mean ± s.d., three experiments
Sequence (P42224 whole entry, the tested form may be a part): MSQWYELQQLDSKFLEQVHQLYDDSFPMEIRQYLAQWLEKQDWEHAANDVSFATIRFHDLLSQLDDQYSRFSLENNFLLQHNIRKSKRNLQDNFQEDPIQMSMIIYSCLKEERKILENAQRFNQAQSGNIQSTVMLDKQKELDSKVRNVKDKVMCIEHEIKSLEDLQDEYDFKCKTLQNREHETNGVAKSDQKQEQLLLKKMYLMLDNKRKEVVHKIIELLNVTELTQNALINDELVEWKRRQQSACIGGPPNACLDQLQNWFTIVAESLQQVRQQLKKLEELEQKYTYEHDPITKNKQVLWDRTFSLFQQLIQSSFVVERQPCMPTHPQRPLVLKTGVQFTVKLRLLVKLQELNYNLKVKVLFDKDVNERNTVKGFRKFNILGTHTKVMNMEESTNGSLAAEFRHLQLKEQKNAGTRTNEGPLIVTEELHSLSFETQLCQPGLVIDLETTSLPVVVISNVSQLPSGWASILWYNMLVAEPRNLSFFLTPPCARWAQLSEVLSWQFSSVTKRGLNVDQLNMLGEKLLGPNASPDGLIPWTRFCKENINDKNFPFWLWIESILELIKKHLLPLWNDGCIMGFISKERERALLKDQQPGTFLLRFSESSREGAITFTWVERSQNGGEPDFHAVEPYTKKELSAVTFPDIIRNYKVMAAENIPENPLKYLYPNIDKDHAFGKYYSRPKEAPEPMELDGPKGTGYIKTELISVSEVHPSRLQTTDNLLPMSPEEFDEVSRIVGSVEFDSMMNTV
Returns one of Met or Not met; Met when inhibition at 80 µM is >= 30%.

Please review the entries below; each comes with its answer.
MOL_SMILES	ASSIGNED_LABEL
CCC(C)(C)c1ccc2occ(/C=N/NC(=O)c3cccnc3)c(=O)c2c1	Met
CC(C)(C)c1ccc2occ(/C=N/NC(=O)c3cccs3)c(=O)c2c1	Met
COc1ccc(C(=O)N/N=C/c2coc3ccc(C(C)(C)C)cc3c2=O)cc1	Met

Query string: Is reported inhibition at 80 µM greater than or equal to 30% here: Cc1ccc2occ(/C=N/NC(=O)c3cccnc3)c(=O)c2c1
Result string: Not met

Query string: Input O=C(N/N=C/c1coc2ccc([N+](=O)[O-])cc2c1=O)c1cccnc1
Result string: Not met

Query string: Input COc1ccc2occ(/C=N/NC(=O)c3cccnc3)c(=O)c2c1
Result string: Not met

Query string: Input COc1cccc(C(=O)N/N=C/c2coc3ccc(C(C)(C)C)cc3c2=O)c1
Result string: Not met

Query string: Input CC(C)(C)c1ccc2occ(/C=N/NC(=O)c3ccc(F)cc3)c(=O)c2c1
Result string: Not met

Query string: Input O=C(N/N=C/c1coc2ccc(Br)cc2c1=O)c1cccnc1
Result string: Met
